target: Angiotensin II receptor (Rattus norvegicus) (UniProt P29089+P25095+P35351); assay: Ratio of IC50 at Angiotensin II type 1 and angiotensin II type 2 receptors; assay type: protein assay
MEASUREMENT TYPE: IC50 ratio

mol=CCCCOC(=O)NS(=O)(=O)c1ccccc1-c1ccc(Cn2c(CCC)nc(CC)c2C(=O)CCN(CCCC)C(=O)c2ccccc2)c(F)c1 target_under_test="Angiotensin II receptor (Rattus norvegicus) (UniProt P29089+P25095+P35351)" obs_value=33
mol=CCCCOC(=O)NS(=O)(=O)c1ccccc1-c1ccc(Cn2c(CCC)nc(CC)c2C(=O)CCN(C(=O)CCC)c2ccccc2)c(F)c1 target_under_test="Angiotensin II receptor (Rattus norvegicus) (UniProt P29089+P25095+P35351)" obs_value=0.75
mol=CCCc1nc(CC)c(C(=O)CCN(C(=O)c2cccnc2)c2cccnc2)n1Cc1ccc(-c2ccccc2S(=O)(=O)NC(=O)OCCC(C)C)cc1 target_under_test="Angiotensin II receptor (Rattus norvegicus) (UniProt P29089+P25095+P35351)" obs_value=3.3
mol=CCCC(=O)N(CCC(=O)c1c(CC)nc(CCC)n1Cc1ccc(-c2ccccc2S(=O)(=O)NC(=O)OCCC(C)C)cc1F)c1cccnc1 target_under_test="Angiotensin II receptor (Rattus norvegicus) (UniProt P29089+P25095+P35351)" obs_value=0.78

----------
Measured log10(IC50) of individual entries
target: Angiotensin II receptor (AT-1) type-1 (Rattus norvegicus, UniProt P29089+P25095); assay: Inhibition of [125I]-[Sar1,Ile8]Ang II binding at rat angiotensin II (type 1) receptor.; assay type: protein assay
MEASUREMENT TYPE: log10(IC50) (log10 of the value in nM)

mol=CCCc1nc(CC)c(C(=O)CCN(C(=O)c2cccnc2)c2cccnc2)n1Cc1ccc(-c2ccccc2S(=O)(=O)NC(=O)OCCC(C)C)cc1 measurement_type=log10(IC50) obs_value=-0.52
mol=CCCc1nc(CC)c(C(=O)CCN(C(=O)c2ccncc2)c2cccnc2)n1Cc1ccc(-c2ccccc2S(=O)(=O)NC(=O)OCCC(C)C)cc1F measurement_type=log10(IC50) obs_value=-0.15
mol=CCCc1nc(CC)c(C(=O)CCN(C(=O)c2ccccc2)c2ccccc2)n1Cc1ccc(-c2ccccc2S(=O)(=O)NC(=O)OCCC(C)C)cc1F measurement_type=log10(IC50) obs_value=-1.00
mol=CCCc1nc(CC)c(C(=O)CCN(C(C)=O)c2cccnc2)n1Cc1ccc(-c2ccccc2S(=O)(=O)NC(=O)OCCC(C)C)cc1F measurement_type=log10(IC50) obs_value=-0.40
mol=CCCCOC(=O)NS(=O)(=O)c1ccccc1-c1ccc(Cn2c(CCC)nc(CC)c2C(C)=O)c(F)c1 measurement_type=log10(IC50) obs_value=0.00
mol=CCCCOC(=O)NS(=O)(=O)c1ccccc1-c1ccc(Cn2c(CCC)nc(CC)c2C(=O)CCN(C(=O)c2ccccc2)c2ccccc2)c(F)c1 measurement_type=log10(IC50) obs_value=-0.60
mol=CCCCOC(=O)NS(=O)(=O)c1ccccc1-c1ccc(Cn2c(CCC)nc(CC)c2C(=O)OC)c(Cl)c1 measurement_type=log10(IC50) obs_value=0.48
